System: Ruminococcus gnavus DSM 108212
Protocol Details: growth (OD595) fold change vs plate DMSO controls (fold change (ratio)); higher = more growth
Study Conditions: incubation time: 27 h, anaerobic, 37 °C
Where a name gives a salt, the structure may show the parent alone.

Molecule | growth
Cc1cc(NC(=O)C2=C(O)c3ccccc3S(=O)(=O)N2C)no1 [Isoxicam] (20 µM) | 1.02
COc1ccc(C2C(=O)c3ccccc3C2=O)cc1 [Anisindione] (20 µM) | 1.04
O=C(NC1CCN(CCCCC2(C(=O)NCC(F)(F)F)c3ccccc3-c3ccccc32)CC1)c1ccccc1-c1ccc(C(F)(F)F)cc1 [Lomitapide] (20 µM) | 1.07
CCOc1ccccc1OCCN[C@H](C)Cc1ccc(OC)c(S(N)(=O)=O)c1 [(R)-Tamsulosin hydrochloride] (20 µM) | 1.01
Cc1cc(O)c(C(=O)N[C@@H](C(=O)N[C@@H]2C(=O)N3C(C(=O)O)=C(CSc4nnnn4C)CS[C@H]23)c2ccc(O)cc2)cn1 [Cefpiramide] (20 µM) | 0
CCN(CC)C(=O)C1(c2ccccc2)CC1CN (configuration not stated) [Milnacipran hydrochloride] (20 µM) | 1.16
C[C@]1(Cn2ccnn2)[C@H](C(=O)O)N2C(=O)C[C@H]2S1(=O)=O [Tazobactam] (20 µM) | 1.05
